- Test system: Klebsiella pneumoniae
- assay: Potentiation of colistin-induced antibacterial activity against colistin resistant Klebsiella pneumoniae F2210291 harbouring mcr-1 gene assessed as colistin MIC at 5 uM incubated for 16 hrs by broth microdilution method
- Assay type: functional
endpoint: MIC (µg/mL)
One number for each entry, in µg/mL.

# structure.smiles, unit.of.measurement, MIC
measured = [
    ("O=C1Nc2cc(Br)ccc2/C1=C1/Nc2ccccc2/C1=N\\O", "µg/mL", 2),
    ("O=C1Nc2cc(Br)ccc2/C1=C1/Nc2c(Br)cccc2/C1=N\\O", "µg/mL", 2),
    ("O=C1Nc2cc(Br)ccc2/C1=C1/Nc2c(F)cccc2/C1=N\\O", "µg/mL", 2),
    ("O=C1Nc2cc(Br)ccc2/C1=C1/Nc2cc(Cl)ccc2/C1=N\\O", "µg/mL", 1),
]

Turning to the following compound.
Suppose we examine the compound "O=C1Nc2cc(Br)ccc2/C1=C1/Nc2c(Cl)cccc2/C1=N\O" ; what MIC value has been reported?
2
